# tested_system: human TLR7 (Homo sapiens, UniProt Q9NYK1)
# Sequence (Q9NYK1 27-1049): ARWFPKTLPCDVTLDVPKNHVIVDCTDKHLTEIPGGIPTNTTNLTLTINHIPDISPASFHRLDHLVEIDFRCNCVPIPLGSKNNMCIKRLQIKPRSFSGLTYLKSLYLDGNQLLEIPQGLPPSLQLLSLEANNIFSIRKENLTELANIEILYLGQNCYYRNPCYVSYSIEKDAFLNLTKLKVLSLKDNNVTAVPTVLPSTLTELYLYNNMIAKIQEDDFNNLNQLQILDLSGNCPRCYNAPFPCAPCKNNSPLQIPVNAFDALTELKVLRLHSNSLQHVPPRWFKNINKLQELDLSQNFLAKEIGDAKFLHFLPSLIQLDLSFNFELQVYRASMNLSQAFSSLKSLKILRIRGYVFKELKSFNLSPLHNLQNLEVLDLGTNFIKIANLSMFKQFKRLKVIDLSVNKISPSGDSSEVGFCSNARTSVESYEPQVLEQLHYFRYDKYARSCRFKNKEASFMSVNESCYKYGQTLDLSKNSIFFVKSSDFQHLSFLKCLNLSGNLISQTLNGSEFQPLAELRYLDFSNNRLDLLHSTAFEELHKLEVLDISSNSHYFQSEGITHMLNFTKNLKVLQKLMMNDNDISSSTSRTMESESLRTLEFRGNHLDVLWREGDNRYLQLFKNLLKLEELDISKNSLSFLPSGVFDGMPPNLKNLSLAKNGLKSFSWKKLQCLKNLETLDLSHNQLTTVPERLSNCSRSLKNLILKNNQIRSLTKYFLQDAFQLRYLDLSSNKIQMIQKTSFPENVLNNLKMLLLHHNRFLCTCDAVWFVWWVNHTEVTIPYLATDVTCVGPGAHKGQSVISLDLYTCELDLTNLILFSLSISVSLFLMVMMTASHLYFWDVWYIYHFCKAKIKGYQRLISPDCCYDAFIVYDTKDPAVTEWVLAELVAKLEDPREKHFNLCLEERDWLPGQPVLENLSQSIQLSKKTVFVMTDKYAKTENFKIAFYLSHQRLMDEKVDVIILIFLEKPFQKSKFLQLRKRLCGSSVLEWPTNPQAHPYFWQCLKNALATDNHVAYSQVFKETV
# measurement_protocol: HEK293-Blue-hTLR-7 cells assay (SEAP reporter, R848 stimulation)
# conditions: HEK293-Blue-hTLR7 cells, R848, 20 hrs
pIC50: −log10 of the molar value.
readout_kind: pIC50

Would you please look over these solved cases?
C[C@@H]1CN(c2ccc(C(F)(F)F)c3ncccc23)C[C@H](C(=O)NC2CCCNCC2)O1 (stereo partly shown)
8.40
C[C@@H]1CN(c2ccc(C(F)(F)F)c3ncccc23)C[C@H](C(=O)NC2C3CCC2CNC3)O1 (stereo partly shown)
8.30
C[C@@H]1CN(c2ccc(C(F)(F)F)c3ncccc23)C[C@H](C(=O)NC2CC3CCCC(C2)N3)O1 (single isomer, unassigned) [Example 34B]
8.15
C[C@@H]1CN(c2ccc(C(F)(F)F)c3ncccc23)C[C@H](C(=O)NC[C@@H]2C[C@@H](F)CN2)O1
7.22
C[C@@H]1CN(c2ccc(C(F)(F)F)c3ncccc23)C[C@H](C(=O)NCC2CCCCN2C)O1 (stereo partly shown)
8.22

A. C[C@@H]1CN(c2ccc(C(F)(F)F)c3ncccc23)C[C@H](C(=O)N2CCC(N)C2)O1 (stereo partly shown)
B. C[C@@H]1CN(c2ccc(I)c3ncccc23)C[C@H](C(=O)NC2CCN(C)CC2)O1
Field: lower pIC50 | Options: A / B Response format: the label of the selected entry.
A

----------
# measurement_protocol: LYSA solubility assay
# Assay type: physicochemical
# conditions: 0.05 M phosphate buffer, pH 6.5, aqueous buffer, thermodynamic from solid
# reported solubility thermodynamic; entries follow

C[C@H]1C[C@@H](N)CN(c2ccc(Cl)c3ncccc23)C1
> 315 µg/mL
CC(NC(=O)[C@H]1CN(c2ccc(C(F)(F)F)c3ncccc23)C[C@@H](C)O1)C1CN(C)CCO1 (single isomer, unassigned) [Example 35A]
> 600 µg/mL
C[C@@H]1CN(c2ccc(Br)c3ncccc23)C[C@H](C(=O)NC2CCN(C)CC2)O1
> 550 µg/mL
C[C@@H]1CN(c2ccc(C(F)(F)F)c3ncccc23)C[C@H](C(=O)NC2CC3CCCC(C2)N3)O1 (single isomer, unassigned) [Example 34A]
> 620 µg/mL
C[C@@H]1CN(c2ccc(C(F)(F)F)c3ncccc23)C[C@H](C(=O)N[C@@H]2CNC[C@@H]2F)O1 (single isomer, unassigned)
> 580 µg/mL
C[C@@H]1CN(c2ccc(C(F)(F)F)c3ncccc23)C[C@H](C(=O)NC[C@@H]2CC(F)(F)CN2)O1
375 µg/mL
C[C@@H]1CN(c2ccc(I)c3ncccc23)C[C@H](C(=O)NC2CNCC2F)O1 (some centres unmarked)
555 µg/mL
C[C@@H]1CN(c2ccc([N+](=O)[O-])c3ncccc23)C[C@H](C(=O)N[C@@H]2CNC[C@@H]2F)O1
> 510 µg/mL

Could you tell me which solubility thermodynamic is on file for `C[C@@H]1CN(c2ccc(C(F)(F)F)c3ncccc23)C[C@H](C(=O)N2CC(N)C2)O1` ?
> 605 µg/mL

Consider the compound `Cc1ccc(N2C[C@@H](C)O[C@@H](C(=O)NC3CCN(C)CC3)C2)c2cccnc12` and give its measured solubility thermodynamic.
> 450 µg/mL

Returns the measured solubility thermodynamic for the input compound. Input: `C[C@@H]1CN(c2ccc([N+](=O)[O-])c3ncccc23)C[C@H](C(=O)NC2CCN(C)CC2)O1`
> 515 µg/mL

Ref: patent US20220363665A1
